Cited source for all entries: the EternaBench riboswitch data

- System: MS2 coat protein
- measurement.description: apparent Kd, MS2 coat protein; higher = weaker binding; RNA-MaP array; FMN 200 µM where present
- run.parameters: ligand present: flavin mononucleotide; designed as: OFF switch for flavin mononucleotide
reported.endpoint: apparent Kd (nM)
A number alone suffices; assume nM.

QUERY: Find the measured apparent Kd: item GGGCCCGGAGGAUAUACAUGAGGAUCACCCAUGUACCCGGGCCCUAUUGGGUUUGGGUGUAGAAGGCCGGGCCC , target or system MS2 coat protein.
RESULT: 15.3

QUERY: Lab request: please report apparent Kd under test system MS2 coat protein for GGAUGACAAAGUCAUCCAAUACGAACAUGAGGAUCACCCAUGUAGGAUAUGCAUCUCAAAGAGAUGCAGAAGGACAUGUGCCUU
RESULT: 272

QUERY: Lab note: need apparent Kd with MS2 coat protein for entry GAAUAAUUGAUCCAAUUUAUCUACAUGAGGAUCACCCAUGUGCAGGAUAUCGUAAAAUUUAAUAACGAGAAGGGCAAGAACGGU , please look it up.
RESULT: 385

QUERY: Given the entry GCCAGGAUGUGAGGAUAUGCUGAGGAUACUUCAGCAGAAGGCACAUGAGGAUCACCCAUGUACACUUAUCAUAAAUACCCUGGC , what apparent Kd was observed with MS2 coat protein?
RESULT: 16.3
